experiment: Spectral properties of rhodamine bis-boronic acids and precursors in DMSO:buffer; type: physicochemical; conditions: DMSO:buffer 1:1
Listed here: items and their measured ε.
Numeric only. Scale: M⁻¹ cm⁻¹

Problem: I am curious: what ε value has been reported for N=c1ccc2c(ccc3c(-c4ccccc4C(=O)O)c4ccc5cc(N)ccc5c4oc32)c1 [Compound 52, naphthorhodamine] ?
Solution: 1081

Here is the next item to consider.
Problem: Looking for the measured ε of Cl.N=c1ccc2c(-c3ccccc3C(=O)O)c3ccc(N)cc3oc-2c1 [Rhodamine 110] , can you help?
Solution: 67905

###

Recorded Q.Y. for the following compounds
assay: Spectral properties of rhodamine bis-boronic acids and precursors in DMSO:buffer; assay type: physicochemical; details: DMSO:buffer 1:1
# print the numeric value only

Problem: Request the reported Q.Y. associated with N=c1ccc2c(ccc3c(-c4ccccc4C(=O)O)c4ccc5cc(N)ccc5c4oc32)c1
Solution: 0.11

Problem: Which value of Q.Y. has been reported for O=C(O)c1ccccc1-c1c2ccc3cc(NCc4ccccc4B(O)O)ccc3c2oc2c1ccc1cc(=NCc3ccccc3B(O)O)ccc12 in the records?
Solution: 0.18

Problem: So what does the record say about Q.Y. for N=c1ccc2c(-c3ccccc3C(=O)O)c3ccc4cc(N)ccc4c3oc-2c1 ?
Solution: 0.30

---
Problem: What value of Q.Y. has been reported for the following compound? O=C(O)c1ccccc1-c1c2ccc(=NCc3ccccc3B(O)O)cc-2oc2c1ccc1cc(NCc3ccccc3B(O)O)ccc12
Solution: 0.35

###

assay: Spectral properties of rhodamine bis-boronic acids and precursors in DMSO:buffer; assay type: physicochemical; conditions: DMSO:buffer 1:1
PROPERTY: ε (M⁻¹ cm⁻¹)
# value in M⁻¹ cm⁻¹; strip the unit string

Field: example entries. Status: answers known.
Problem: Which measured ε value corresponds to N=c1ccc2c(-c3ccccc3C(=O)O)c3ccc4cc(N)ccc4c3oc-2c1 [Compound 50, seminaphthorhodamine] ?
Solution: 21064

Problem: I have this molecule here, O=C(O)c1ccccc1-c1c2ccc(=NCc3ccccc3B(O)O)cc-2oc2c1ccc1cc(NCc3ccccc3B(O)O)ccc12 [Compound 51, seminaphthorhodamine bis-boronic acid] , and I need its recorded ε.
Solution: 23096

The record that follows has no ε shown yet.
Problem: Looking for the measured ε of O=C(O)c1ccccc1-c1c2ccc3cc(NCc4ccccc4B(O)O)ccc3c2oc2c1ccc1cc(=NCc3ccccc3B(O)O)ccc12 [Compound 53, naphthorhodamine bis-boronic acid] , can you help?
Solution: 1616
